Quick reference for Wnt signaling IC50 (nM; human NOTUM) among some binders
# target-of-assay: T1, Human NOTUM (human, UniProt Q6P988 20-496)
# T1 sequence: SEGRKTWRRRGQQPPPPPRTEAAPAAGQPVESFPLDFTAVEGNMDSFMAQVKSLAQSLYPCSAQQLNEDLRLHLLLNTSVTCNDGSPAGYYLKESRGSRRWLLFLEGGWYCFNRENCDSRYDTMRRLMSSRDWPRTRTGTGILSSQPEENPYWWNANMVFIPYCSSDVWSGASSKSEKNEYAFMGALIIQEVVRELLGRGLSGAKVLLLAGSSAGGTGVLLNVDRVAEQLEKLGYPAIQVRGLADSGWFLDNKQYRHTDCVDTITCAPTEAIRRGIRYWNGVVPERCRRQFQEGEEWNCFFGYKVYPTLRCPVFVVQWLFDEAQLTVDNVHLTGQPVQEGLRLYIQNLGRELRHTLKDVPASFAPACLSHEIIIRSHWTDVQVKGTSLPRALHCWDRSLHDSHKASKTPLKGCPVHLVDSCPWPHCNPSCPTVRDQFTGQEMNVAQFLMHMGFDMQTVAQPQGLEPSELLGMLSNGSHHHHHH
# assay-method-text: cell-based or functional assay
All answers are understood in nM, so give the number only.

Study these solved cases before continuing.
MAb 1.815 (antibody, IgG1, V domains shown, Mouse monoclonal antibody from Campaign 1, IgG1) VH: DVQLLESGGGLVQPGGSRKLSCAASGFTFSDFGMHWVRQAPEKGLEWVAYSSSGGTTVYYADTVKGRLTLSRDNSKNTLFLEMTSLRSEDTAMYYCARASYDGGYFDCWGQGTSLTVSS VL: DIVLTQSPASLAVSLGQRATISCRASKSVSTSGYSYIHWYQQKPGQPPKLLIYLASDLESGVPARFSGSGSGAAFTLNIHPVEEEDAATYYCHHSRELPFTFGSGTKLEIKR :: 6.88
MAb 1.731 (antibody, IgG1, V domains shown) VH: EVQLQQSGPELVKPGASVKVSCKASGYPFTDYFIHWVKQTHGKSLEWIGYFFPKNGANGYNQKFEGKVTLTVDKSSSTAYMELRSLTSEDSAVYYCARRYGNYYSMDYWGQGTSVTVSS VL: SFVMTQTPKFLLVSAGDRVTITCKASQSVGDDVAWYQQKPGQSPTLLIYRVSNRYTGVPDRFTGSGYGTDFTFTINTVQAEDLAVYFCQQDYSSPYTFGGGTQLEVKR :: 15.5

Please examine the following record next.
# query: Wnt signaling IC50 (nM; human NOTUM) of entry MAb 1.846 (antibody, IgG2b, V domains shown, Mouse monoclonal antibody from Campaign 1, IgG2b) VH: EVQLVESGGDLVKPGGSLKLSCAASGFTFSDYGMHWLRQAPEKGLEWVAYISSGSTTLSYANTMKGRFTISRDNAKKTLSLQMTSLRSEDTAIYYCARKNYNGGYFDVWGTGTTVTVSS VL: DIVLTQSPASLVVSLGQRATISCRASKSVSESGYSYMHWYQQKPGQPPKLLIYLASNLESGVPARFSGSGSGTDFTLNIHPVEEGDATTYYCQHSRVLPPTFGSGTKLEIKR
1.7

Origin of the recorded values: patent US20130302346A1
